- Assay overview: Cytotoxicity assay (resazurin reduction) in uninfected HFFs
- Format: cell-based, human
- Assay conditions: human
Measurement label: CC50 at 72 h

Reported CC50 at 72 h of COc1cc(/C=N/c2c(SC(F)(F)F)c(C#N)nn2-c2c(Cl)cc(C(F)(F)F)cc2Cl)ccc1O : > 50 µM

----------
- Assay overview: Cytotoxicity assay (resazurin reduction) in uninfected HFFs
- Assay type: cell-based, human
- Assay conditions: human, uninfected human foreskin fibroblasts (HFF); half cytotoxic concentration against HFF, 72 h, highest concentration tested 50 μM; read-out: CC50 (μM) ± SD
compounds and their reported CC50 at 72 h

Looking up CCOc1ccccc1NC(=O)Cn1c(=O)n(Cc2ccccc2)c(=O)c2c(C)c(C(=O)N(C)C)sc21 , I see its CC50 at 72 h listed as > 50 µM

For record CCc1nc(N)nc(N)c1-c1ccc(Cl)cc1 [Pyrimethamine, reference compound] the listed CC50 at 72 h is > 50 µM

Quick note, CC50 at 72 h for CS(=O)(=O)c1ccc(-c2cnn3c2NC(c2cccc(S(=O)(=O)C4CC4)c2)CC3)cc1 (stereo not shown) landed at > 50 µM

Briefly, CC50 at 72 h measured for Cn1ccnc1SCC(=O)Nc1ccc(C(=O)Nc2ncccc2O)cc1 : 29.2 µM

----------
- Test system: T. gondii intracellular tachyzoites
- Assay overview: microbe, parasite or virus in culture
- Format: cell-based, Toxoplasma gondii RH-2F1
- Assay conditions: half effective concentration against T. gondii intracellular tachyzoites in HFF, MOI 1:1, 72 h, duplicates in three independent experiments
Measurement label: EC50 (µM)
Only the number, expressed in µM, is required.

The molecule listed as Cn1c(O)c(C(=O)Nc2ccc(Cl)c(Cl)c2)c(=O)n(C)c1=O has a reported EC50 of 0.52

What the record says about CN(C)C1CC(NC(=O)c2ccc(Nc3nccc(-c4ccc(Cl)c(C(F)(F)F)c4)n3)cc2)C1 (stereo not drawn) : EC50 is 0.76

Short answer for O=C(Nc1ccc(Cl)c(C(F)(F)F)c1)Nc1ccc(Cl)c(C(F)(F)F)c1 : EC50 was 0.5

Quick note, EC50 for O=C(Nc1ncccc1O)c1ccc(N2CCOCC2)nc1 landed at 0.72

The value of EC50 measured for the molecule O=C(Nc1ncccc1O)c1ccc(Cn2cccn2)cc1 turned out to be 0.73

# EC50 (molecule: O=C(Nc1ncccc1O)c1ccc(S(=O)(=O)NCCc2cccs2)cc1 ) is 0.34

----------
- System: human foreskin fibroblasts (HFF)
- Assay overview: Cytotoxicity assay (resazurin reduction) in uninfected HFFs
- Format: cell-based
- Assay conditions: half cytotoxic concentration against HFF, 72 h, highest concentration tested 50 μM
Measurement label: CC50 (µM)
The reply should be a number in µM, with the unit left off.

# example entries with known answers
- O=C(Nc1ncccc1O)c1ccc(S(=O)(=O)NCCc2cccs2)cc1 [MMV1435700]: 20
- O=C(Nc1ccc(Cl)c(C(F)(F)F)c1)Nc1ccc(Cl)c(C(F)(F)F)c1 [MMV027339]: 5.51
- CN(C)C1CC(NC(=O)c2ccc(Nc3nccc(-c4ccc(Cl)c(C(F)(F)F)c4)n3)cc2)C1 (stereo not drawn) [MMV884814]: 4.1

Switching to the query record.
The compound listed as Cn1c(O)c(C(=O)Nc2ccc(Cl)c(Cl)c2)c(=O)n(C)c1=O [MMV1634081] shows CC50 equal to 30.8
